Source: ChEMBL document CHEMBL1158673

test system: H9; experiment: Cytotoxicity against human H9 cells; type: cell-based
Reported IC50 values for a set of compounds
Number plus unit, in that order.

A selection of reference data follows.
>>> result("CC(=O)OC[C@]1(C)CCC[C@]2(C)[C@@H]1CC[C@@]13C[C@H](CC[C@H]12)[C@@H](C(=O)O)C3")
"40 µg/mL"
>>> result("COC(=O)[C@]1(OC(C)=O)C[C@@]23CC[C@H]4[C@@](C)(CCC[C@@]4(C)C=O)[C@@H]2CC[C@H]1C3")
"15 µg/mL"

Continue with the compound presented below.
## Input What does the data say about its IC50? Entry: `CC1(C)CCC[C@]2(C)[C@@H]1CC[C@@]13C[C@H](CC[C@H]12)[C@@H](C(=O)O)C3`
## Output 40 µg/mL

---

Below, each of the molecules is paired with its reported IC50 value.
test system: H9; assay: Cytotoxicity against human H9 cells; type: cell-based
Response body: numeric value in µg/mL, unit text excluded.

>>> readout_number("CC1(C)CCC[C@]2(C)[C@@H]1CC[C@@]13C[C@H](CC[C@H]12)[C@H](C(=O)O)C3")
32
>>> readout_number("COC(=O)[C@H]1C[C@@]23CC[C@H]4[C@@](C)(CCC[C@@]4(C)C=O)[C@@H]2CC[C@H]1C3")
20

Could you now look at the following molecule, please?
## Input Looking for the measured IC50 of `CC(=O)OC[C@]1(O)C[C@@]23CC[C@H]4[C@@](C)(CCC[C@@]4(C)C(=O)O)[C@@H]2CC[C@H]1C3` , can you help?
## Output 65

---

assay: Therapeutic index, ratio of IC50 for human H9 cells to EC50 for HIV; type: cell-based; conditions: H9
# therapeutic index per record follows
// keep it numeric: no unit symbol after the value

Use the examples below as a reference point.
>>> readout_number("CC(=O)OC[C@]1(O)C[C@@]23CC[C@H]4[C@@](C)(CCC[C@@]4(C)C(=O)O)[C@@H]2CC[C@H]1C3")
0.8
>>> readout_number("COC(=O)[C@H]1C[C@@]23CC[C@H]4[C@@](C)(CCC[C@@]4(C)C=O)[C@@H]2CC[C@H]1C3")
4

## Input therapeutic index lookup needed for Cc1cn([C@H]2C[C@H](N=[N+]=[N-])[C@@H](CO)O2)c(=O)[nH]c1=O [ZIDOVUDINE] , thanks.
## Output 50000

## Input Which therapeutic index value belongs to `CC1(C)CCC[C@]2(C)[C@@H]1CC[C@@]13C[C@H](CC[C@H]12)[C@H](C(=O)O)C3` ?
## Output 1.3

## Input Query (molecule): COC(=O)[C@]1(OC(C)=O)C[C@@]23CC[C@H]4[C@@](C)(CCC[C@@]4(C)C=O)[C@@H]2CC[C@H]1C3 [ANNOGLABASIN A] ; field requested: therapeutic index
## Output 1.5

---

tested on: Human immunodeficiency virus; experiment: Inhibition of HIV reverse transcriptase at 33 ug/mL by scintillation counting
metric: inhibition (%)
State the answer as a number, implicitly in %.

## Input API: value(readout=inhibition, system=Human immunodeficiency virus) for record `C=C1C[C@@]23CC[C@@H]4[C@](C)(CO)CCC[C@@]4(C)[C@@H]2CC[C@H]1C3`
## Output 7

## Input API: value(readout= inhibition, system= Human immunodeficiency virus, query= `C[C@@]12CCC[C@@](C)(C(=O)O)[C@H]1CC[C@@]13C[C@H](CC[C@H]12)[C@@](O)(CO)C3` )
## Output 46

## Input Identify the measured inhibition of `C[C@@]12CCC[C@@](C)(C=O)[C@H]1CC[C@@]13C[C@H](CC[C@H]12)[C@@H](C(=O)O)C3` for Human immunodeficiency virus.
## Output 14

## Input What is its inhibition for Human immunodeficiency virus? Entry: `C=C1C[C@@]23CC[C@H]4[C@@](C)(CCC[C@@]4(C)C(=O)O)[C@@H]2CC[C@@H]1C3`
## Output 1
